Source: patent US6750197B1

Give measured INOS Activity 0.1 mg/ml for each item. Keep answers brief.
- measured-target: INOS (Rattus norvegicus, UniProt Q06518)
- test-details: INOS activity by oxidation of ferrous myoglobin by product NO
- Assay type: biochemical
- Set-up: unit not given here
- test-parameters: peptide 0.1 mg/ml; no peptide: 14.9 ± .56

Recorded INOS Activity 0.1 mg/ml, per entry:
{"substance": "AVDTRLEELGGERT [BO58-01, 35]", "INOS Activity 0.1 mg/ml": "15.0 ± .73"}
{"substance": "QEERKSYKVRF [BO58-09, 16]", "INOS Activity 0.1 mg/ml": "14.7 ± .28"}

Hey, quick one: what's INOS Activity 0.1 mg/ml for each of these?
1. DIDQKLSHLGASQT [BO58-03, 23]
2. AVDTLLEELGGERT [BO58-02, 22]
3. SSWRRKRKESS [BO58-08, 13; b114 cites it by residues 4-11]
4. QEERKSYKVRFNSVSSYSDSQKSSGDGPDL [JX4, 19]

Result block:
14.4 ± .27
15.1 ± .03
14.5 ± .70
14.1 ± .57

Hey, quick one: what's INOS Activity 0.1 mg/ml for each of these?
1. SSPRPEQHKSYKIRFNSVSCSDPLVSSWRRKRKESS [JX2, 14]
2. RPEQHKSYKIRF [BO58-10, 17]
3. WRRKRK [BO58-07, 12]
4. DDVVSLEHET [BO58-04, 24]
5. DIVHLEHES [BO58-05, 25]
6. SDSRKSSGDGPDLR [BO58-11, 18]
7. QHKSYKIRFNSVSCSDPLVSSWRRKRKE [JX3, 15]
8. KASTLEEEQ [BO58-06, 26]

Result block:
1: 13.1 ± .11; 2: 14.6 ± .02; 3: 13.6 ± .31; 4: 15.8 ± .73; 5: 14.6 ± .03; 6: 14.7 ± .94; 7: 12.9 ± .32; 8: 15.3 ± .32

---

- measured-target: NNOS (Rattus norvegicus, UniProt P29476)
- Sequence (P29476 whole entry): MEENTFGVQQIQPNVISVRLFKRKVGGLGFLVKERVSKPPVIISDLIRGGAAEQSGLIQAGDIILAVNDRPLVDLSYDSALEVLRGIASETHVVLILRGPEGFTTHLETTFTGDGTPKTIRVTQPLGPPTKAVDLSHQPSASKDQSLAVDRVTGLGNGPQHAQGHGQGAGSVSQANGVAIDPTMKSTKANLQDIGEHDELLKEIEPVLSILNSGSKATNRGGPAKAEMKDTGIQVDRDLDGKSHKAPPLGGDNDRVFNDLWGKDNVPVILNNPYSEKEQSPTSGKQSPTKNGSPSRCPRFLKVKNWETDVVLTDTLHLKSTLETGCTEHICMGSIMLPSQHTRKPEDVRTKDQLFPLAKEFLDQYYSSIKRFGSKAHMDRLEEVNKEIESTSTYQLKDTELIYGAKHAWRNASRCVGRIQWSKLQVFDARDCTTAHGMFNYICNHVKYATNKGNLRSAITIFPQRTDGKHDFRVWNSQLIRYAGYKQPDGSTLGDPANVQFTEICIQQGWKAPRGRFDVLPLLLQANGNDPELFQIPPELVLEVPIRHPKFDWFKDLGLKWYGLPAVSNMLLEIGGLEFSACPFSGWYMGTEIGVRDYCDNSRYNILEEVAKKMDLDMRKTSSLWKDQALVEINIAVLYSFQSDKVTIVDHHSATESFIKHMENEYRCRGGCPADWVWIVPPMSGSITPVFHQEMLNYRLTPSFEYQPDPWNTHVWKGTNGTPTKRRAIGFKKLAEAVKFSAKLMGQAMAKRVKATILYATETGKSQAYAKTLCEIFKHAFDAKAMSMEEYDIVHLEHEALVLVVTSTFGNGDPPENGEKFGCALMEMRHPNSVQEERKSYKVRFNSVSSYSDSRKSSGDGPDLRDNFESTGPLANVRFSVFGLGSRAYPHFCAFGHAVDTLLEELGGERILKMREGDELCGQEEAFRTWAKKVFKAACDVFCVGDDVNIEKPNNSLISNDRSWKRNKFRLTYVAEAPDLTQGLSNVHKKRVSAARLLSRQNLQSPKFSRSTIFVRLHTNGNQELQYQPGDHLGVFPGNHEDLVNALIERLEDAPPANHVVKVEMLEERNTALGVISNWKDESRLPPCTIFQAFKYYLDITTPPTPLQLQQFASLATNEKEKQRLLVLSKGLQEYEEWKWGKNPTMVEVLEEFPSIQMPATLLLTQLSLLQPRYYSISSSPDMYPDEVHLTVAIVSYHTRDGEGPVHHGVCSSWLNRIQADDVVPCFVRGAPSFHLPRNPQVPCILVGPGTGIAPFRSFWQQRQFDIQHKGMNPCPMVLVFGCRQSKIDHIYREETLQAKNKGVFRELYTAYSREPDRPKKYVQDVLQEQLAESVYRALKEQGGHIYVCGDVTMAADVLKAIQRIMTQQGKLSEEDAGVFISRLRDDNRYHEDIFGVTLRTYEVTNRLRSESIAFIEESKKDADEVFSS
- test-details: CAM binding: radiolabeled CAM trapped on a membrane by NNOS adhesion
- test-parameters: no peptide: 774 ± 40
measurement-name: NNOS CAM Binding
Please answer using the number first and the unit second.

{"substance": "SDSRKSSGDGPDLR [BO58-11, 18]", "NNOS CAM Binding": "908 ± 56 counts"}
{"substance": "QEERKSYKVRF [BO58-09, 16]", "NNOS CAM Binding": "686 ± 43 counts"}
{"substance": "DIVHLEHES [BO58-05, 25]", "NNOS CAM Binding": "952 ± 52 counts"}
{"substance": "QHKSYKIRFNSVSCSDPLVSSWRRKRKE [JX3, 15]", "NNOS CAM Binding": "674 ± 100 counts"}
{"substance": "DIDQKLSHLGASQT [BO58-03, 23]", "NNOS CAM Binding": "863 ± 19 counts"}

Hey, quick one: what's NNOS CAM Binding for each of these?
1. SSWRRKRKESS [BO58-08, 13; b114 cites it by residues 4-11]
2. QEERKSYKVRFNSVSSYSDSQKSSGDGPDL [JX4, 19]

Result block:
152 ± 26 counts
659 ± 41 counts

Hey, quick one: what's NNOS CAM Binding for each of these?
1. DDVVSLEHET [BO58-04, 24]
2. AVDTLLEELGGERT [BO58-02, 22]
3. AVDTRLEELGGERT [BO58-01, 35]
4. RPEQHKSYKIRF [BO58-10, 17]
5. WRRKRK [BO58-07, 12]

Result block:
1. 903 ± 57 counts
2. 953 ± 80 counts
3. 986 ± 58 counts
4. 1339 ± 49 counts
5. 1749 ± 40 counts

Hey, quick one: what's NNOS CAM Binding for each of these?
1. SSPRPEQHKSYKIRFNSVSCSDPLVSSWRRKRKESS [JX2, 14]
2. KASTLEEEQ [BO58-06, 26]

Result block:
1. 1356 ± 46 counts
2. 951 ± 100 counts
